- Tested on: Pasteurella multocida CVCC399
- protocol: in vitro susceptibility, MIC by mini broth dilution
- Assay type: cell-based
- condition_context: strain CVCC399
measured_quantity: MIC values, Pasteurella multocida CVCC399 (ug/mi)
Output spec: scalar in ug/mi, unitless text.

INSERT INTO assay_data (molecule, result_number) VALUES
  ('CCCC(C)NC[C@]1(O)[C@H](C)O[C@@H](O[C@H]2[C@H](C)[C@@H](O[C@@H]3O[C@H](C)C[C@H](N(C)C)[C@H]3O)[C@](C)(O)C[C@@H](C)N(CCC)C[C@H](C)[C@@H](O)[C@](C)(O)[C@@H](CC)OC(=O)[C@@H]2C)C[C@@]1(C)OC (stereo partly shown)', 1),
  ('CCCN1C[C@H](C)[C@@H](O)[C@](C)(O)[C@@H](CC)OC(=O)[C@H](C)[C@@H](O[C@H]2C[C@@](C)(OC)[C@](O)(CNCc3ccc([N+](=O)[O-])cc3)[C@H](C)O2)[C@H](C)[C@@H](O[C@@H]2O[C@H](C)C[C@H](N(C)C)[C@H]2O)[C@](C)(O)C[C@H]1C', 1),
  ('CCCN1C[C@H](C)[C@@H](O)[C@](C)(O)[C@@H](CC)OC(=O)[C@H](C)[C@@H](O[C@H]2C[C@@](C)(OC)[C@](O)(CNCCc3ccncc3)[C@H](C)O2)[C@H](C)[C@@H](O[C@@H]2O[C@H](C)C[C@H](N(C)C)[C@H]2O)[C@](C)(O)C[C@H]1C [syzx-164]', 2);

Q: Fill blank: measured MIC values, Pasteurella multocida CVCC399 of the molecule CC[C@H]1OC(=O)[C@H](C)[C@@H](O[C@H]2C[C@@](C)(OC)[C@](O)(CNC(C)CCc3ccccc3)[C@H](C)O2)[C@H](C)[C@@H](O[C@@H]2O[C@H](C)C[C@H](N(C)C)[C@H]2O)[C@](C)(O)C[C@@H](C)NC[C@H](C)[C@@H](O)[C@]1(C)O (stereo partly shown) is ____.
A: 16

Q: Fill blank: measured MIC values, Pasteurella multocida CVCC399 of the molecule "CCCCN(C)C[C@]1(O)[C@H](C)O[C@@H](O[C@H]2[C@H](C)[C@@H](O[C@@H]3O[C@H](C)C[C@H](N(C)C)[C@H]3O)[C@](C)(O)C[C@@H](C)NC[C@H](C)[C@@H](O)[C@](C)(O)[C@@H](CC)OC(=O)[C@@H]2C)C[C@@]1(C)OC" is ____.
A: 2

Q: Fill blank: measured MIC values, Pasteurella multocida CVCC399 of the molecule "CCCNC[C@]1(O)[C@H](C)O[C@@H](O[C@H]2[C@H](C)[C@@H](O[C@@H]3O[C@H](C)C[C@H](N(C)C)[C@H]3O)[C@](C)(O)C[C@@H](C)N(CCC)C[C@H](C)[C@@H](O)[C@](C)(O)[C@@H](CC)OC(=O)[C@@H]2C)C[C@@]1(C)OC" is ____.
A: 0.125

Q: Fill blank: measured MIC values, Pasteurella multocida CVCC399 of the molecule "CCCN1C[C@H](C)[C@@H](O)[C@](C)(O)[C@@H](CC)OC(=O)[C@H](C)[C@@H](O[C@H]2C[C@@](C)(OC)[C@](O)(CNc3ccc([N+](=O)[O-])cc3[N+](=O)[O-])[C@H](C)O2)[C@H](C)[C@@H](O[C@@H]2O[C@H](C)C[C@H](N(C)C)[C@H]2O)[C@](C)(O)C[C@H]1C" is ____.
A: 2

###

- Test system: Actinobacillus pleuropneumoniae CVCC262
- protocol: in vitro susceptibility, MIC by mini broth dilution
- Assay type: cell-based
- condition_context: strain CVCC262
Lab note - cut at 2 ug/mi for MIC values, Actinobacillus pleuropneumoniae CVCC262: label 1 if strictly below, label 0 if not.

# count of solved cases: 5
INSERT INTO measurements (compound, label) VALUES
  ('CCCN1C[C@H](C)[C@@H](O)[C@](C)(O)[C@@H](CC)OC(=O)[C@H](C)[C@@H](O[C@H]2C[C@@](C)(OC)[C@](O)(CNC(=O)C(F)(F)F)[C@H](C)O2)[C@H](C)[C@@H](O[C@@H]2O[C@H](C)C[C@H](N(C)C)[C@H]2O)[C@](C)(O)C[C@H]1C [syzx-137]', 'label 1'),
  ('CCCCNC[C@]1(O)[C@H](C)O[C@@H](O[C@H]2[C@H](C)[C@@H](O[C@@H]3O[C@H](C)C[C@H](N(C)C)[C@H]3O)[C@](C)(O)C[C@@H](C)N(CCC)C[C@H](C)[C@@H](O)[C@](C)(O)[C@@H](CC)OC(=O)[C@@H]2C)C[C@@]1(C)OC', 'label 1'),
  ('CCCN1C[C@H](C)[C@@H](O)[C@](C)(O)[C@@H](CC)OC(=O)[C@H](C)[C@@H](O[C@H]2C[C@@](C)(OC)[C@](O)(CNC(=O)c3ccccc3)[C@H](C)O2)[C@H](C)[C@@H](O[C@@H]2O[C@H](C)C[C@H](N(C)C)[C@H]2O)[C@](C)(O)C[C@H]1C', 'label 0'),
  ('CCCN1C[C@H](C)[C@@H](O)[C@](C)(O)[C@@H](CC)OC(=O)[C@H](C)[C@@H](O[C@H]2C[C@@](C)(OC)[C@](O)(CNCCc3c[nH]c4ccccc34)[C@H](C)O2)[C@H](C)[C@@H](O[C@@H]2O[C@H](C)C[C@H](N(C)C)[C@H]2O)[C@](C)(O)C[C@H]1C', 'label 0'),
  ('C#CC=C(C)NC[C@]1(O)[C@H](C)O[C@@H](O[C@H]2[C@H](C)[C@@H](O[C@@H]3O[C@H](C)C[C@H](N(C)C)[C@H]3O)[C@](C)(O)C[C@@H](C)N(CCC)C[C@H](C)[C@@H](O)[C@](C)(O)[C@@H](CC)OC(=O)[C@@H]2C)C[C@@]1(C)OC', 'label 1');

Q: Report whether reported MIC values, Actinobacillus pleuropneumoniae CVCC262 is lower than 2 ug/mi (strictly) for "C#CC=C(C)NC[C@]1(O)[C@H](C)O[C@@H](O[C@H]2[C@H](C)[C@@H](O[C@@H]3O[C@H](C)C[C@H](N(C)C)[C@H]3O)[C@](C)(O)C[C@@H](C)NC[C@H](C)[C@@H](O)[C@](C)(O)[C@@H](CC)OC(=O)[C@@H]2C)C[C@@]1(C)OC"
A: label 0

Q: Report whether reported MIC values, Actinobacillus pleuropneumoniae CVCC262 is lower than 2 ug/mi (strictly) for "CCCN1C[C@H](C)[C@@H](O)[C@](C)(O)[C@@H](CC)OC(=O)[C@H](C)[C@@H](O[C@H]2C[C@@](C)(OC)[C@](O)(CN3CCCC3)[C@H](C)O2)[C@H](C)[C@@H](O[C@@H]2O[C@H](C)C[C@H](N(C)C)[C@H]2O)[C@](C)(O)C[C@H]1C"
A: label 1

Q: Report whether reported MIC values, Actinobacillus pleuropneumoniae CVCC262 is lower than 2 ug/mi (strictly) for "CCCN1C[C@H](C)[C@@H](O)[C@](C)(O)[C@@H](CC)OC(=O)[C@H](C)[C@@H](O[C@H]2C[C@@](C)(OC)[C@](O)(CNCc3cccnc3)[C@H](C)O2)[C@H](C)[C@@H](O[C@@H]2O[C@H](C)C[C@H](N(C)C)[C@H]2O)[C@](C)(O)C[C@H]1C"
A: label 1

Q: Report whether reported MIC values, Actinobacillus pleuropneumoniae CVCC262 is lower than 2 ug/mi (strictly) for "CCCN1C[C@H](C)[C@@H](O)[C@](C)(O)[C@@H](CC)OC(=O)[C@H](C)[C@@H](O[C@H]2C[C@@](C)(OC)[C@](O)(CNc3cc(F)ccc3[N+](=O)[O-])[C@H](C)O2)[C@H](C)[C@@H](O[C@@H]2O[C@H](C)C[C@H](N(C)C)[C@H]2O)[C@](C)(O)C[C@H]1C"
A: label 0

Q: Report whether reported MIC values, Actinobacillus pleuropneumoniae CVCC262 is lower than 2 ug/mi (strictly) for "CCCN1C[C@H](C)[C@@H](O)[C@](C)(O)[C@@H](CC)OC(=O)[C@H](C)[C@@H](O[C@H]2C[C@@](C)(OC)[C@](O)(CNc3cc(Cl)nc(Cl)n3)[C@H](C)O2)[C@H](C)[C@@H](O[C@@H]2O[C@H](C)C[C@H](N(C)C)[C@H]2O)[C@](C)(O)C[C@H]1C"
A: label 0

###

- Tested on: Pasteurella multocida CVCC399
- protocol: in vitro susceptibility, MIC by mini broth dilution
- Assay type: cell-based
- condition_context: strain CVCC399
- Method: in vitro tests of susceptibility of the compounds according to the present disclosure against bacterial strains commonly used in laboratories. […] The MICs (minimum inhibitory concentration) of the medicaments prepared according to the examples on the following bacterial strains were measured through mini broth dilution technique. […] The dilution ratio was recorded, and the bacterial liquid for the tests was diluted according to the recorded dilution ratio. […]
measured_quantity: MIC values, Pasteurella multocida CVCC399 (ug/mi)
Output spec: scalar in ug/mi, unitless text.

INSERT INTO assay_data (compound, unit_spec, result_number) VALUES
  ('CCCN1C[C@H](C)[C@@H](O)[C@](C)(O)[C@@H](CC)OC(=O)[C@H](C)[C@@H](O[C@H]2C[C@@](C)(OC)[C@](O)(CNc3ccc(OC)cc3)[C@H](C)O2)[C@H](C)[C@@H](O[C@@H]2O[C@H](C)C[C@H](N(C)C)[C@H]2O)[C@](C)(O)C[C@H]1C', 'ug/mi', 2);

Q: Fill blank: measured MIC values, Pasteurella multocida CVCC399 of the compound "CCCN1C[C@H](C)[C@@H](O)[C@](C)(O)[C@@H](CC)OC(=O)[C@H](C)[C@@H](O[C@H]2C[C@@](C)(OC)[C@](O)(CNC3CCCCCC3)[C@H](C)O2)[C@H](C)[C@@H](O[C@@H]2O[C@H](C)C[C@H](N(C)C)[C@H]2O)[C@](C)(O)C[C@H]1C" is ____.
A: 0.25

Q: Fill blank: measured MIC values, Pasteurella multocida CVCC399 of the compound "CC[C@H]1OC(=O)[C@H](C)[C@@H](O[C@H]2C[C@@](C)(OC)[C@](O)(CNc3cc(OC)cc(OC)c3)[C@H](C)O2)[C@H](C)[C@@H](O[C@@H]2O[C@H](C)C[C@H](N(C)C)[C@H]2O)[C@](C)(O)C[C@@H](C)NC[C@H](C)[C@@H](O)[C@]1(C)O" is ____.
A: 4

Q: Fill blank: measured MIC values, Pasteurella multocida CVCC399 of the compound "CC[C@H]1OC(=O)[C@H](C)[C@@H](O[C@H]2C[C@@](C)(OC)[C@](O)(CNCC3CCNCC3)[C@H](C)O2)[C@H](C)[C@@H](O[C@@H]2O[C@H](C)C[C@H](N(C)C)[C@H]2O)[C@](C)(O)C[C@@H](C)NC[C@H](C)[C@@H](O)[C@]1(C)O" is ____.
A: 64

Q: Fill blank: measured MIC values, Pasteurella multocida CVCC399 of the compound CCCN1C[C@H](C)[C@@H](O)[C@](C)(O)[C@@H](CC)OC(=O)[C@H](C)[C@@H](O[C@H]2C[C@@](C)(OC)[C@](O)(CN(C)CCO)[C@H](C)O2)[C@H](C)[C@@H](O[C@@H]2O[C@H](C)C[C@H](N(C)C)[C@H]2O)[C@](C)(O)C[C@H]1C [syzx-239] is ____.
A: 8

Q: Fill blank: measured MIC values, Pasteurella multocida CVCC399 of the compound "CCCN1C[C@H](C)[C@@H](O)[C@](C)(O)[C@@H](CC)OC(=O)[C@H](C)[C@@H](O[C@H]2C[C@@](C)(OC)[C@](O)(CNCC3CC3)[C@H](C)O2)[C@H](C)[C@@H](O[C@@H]2O[C@H](C)C[C@H](N(C)C)[C@H]2O)[C@](C)(O)C[C@H]1C" is ____.
A: 0.5

Q: Fill blank: measured MIC values, Pasteurella multocida CVCC399 of the compound "CC[C@H]1OC(=O)[C@H](C)[C@@H](O[C@H]2C[C@@](C)(OC)[C@](O)(CNc3ccc(OC)cc3)[C@H](C)O2)[C@H](C)[C@@H](O[C@@H]2O[C@H](C)C[C@H](N(C)C)[C@H]2O)[C@](C)(O)C[C@@H](C)NC[C@H](C)[C@@H](O)[C@]1(C)O" is ____.
A: 0.25
